The reported measurements were obtained from ChEMBL document CHEMBL5329222.

Target: hERG (KCNH2) (Homo sapiens, UniProt Q12809)
Sequence (Q12809 whole entry): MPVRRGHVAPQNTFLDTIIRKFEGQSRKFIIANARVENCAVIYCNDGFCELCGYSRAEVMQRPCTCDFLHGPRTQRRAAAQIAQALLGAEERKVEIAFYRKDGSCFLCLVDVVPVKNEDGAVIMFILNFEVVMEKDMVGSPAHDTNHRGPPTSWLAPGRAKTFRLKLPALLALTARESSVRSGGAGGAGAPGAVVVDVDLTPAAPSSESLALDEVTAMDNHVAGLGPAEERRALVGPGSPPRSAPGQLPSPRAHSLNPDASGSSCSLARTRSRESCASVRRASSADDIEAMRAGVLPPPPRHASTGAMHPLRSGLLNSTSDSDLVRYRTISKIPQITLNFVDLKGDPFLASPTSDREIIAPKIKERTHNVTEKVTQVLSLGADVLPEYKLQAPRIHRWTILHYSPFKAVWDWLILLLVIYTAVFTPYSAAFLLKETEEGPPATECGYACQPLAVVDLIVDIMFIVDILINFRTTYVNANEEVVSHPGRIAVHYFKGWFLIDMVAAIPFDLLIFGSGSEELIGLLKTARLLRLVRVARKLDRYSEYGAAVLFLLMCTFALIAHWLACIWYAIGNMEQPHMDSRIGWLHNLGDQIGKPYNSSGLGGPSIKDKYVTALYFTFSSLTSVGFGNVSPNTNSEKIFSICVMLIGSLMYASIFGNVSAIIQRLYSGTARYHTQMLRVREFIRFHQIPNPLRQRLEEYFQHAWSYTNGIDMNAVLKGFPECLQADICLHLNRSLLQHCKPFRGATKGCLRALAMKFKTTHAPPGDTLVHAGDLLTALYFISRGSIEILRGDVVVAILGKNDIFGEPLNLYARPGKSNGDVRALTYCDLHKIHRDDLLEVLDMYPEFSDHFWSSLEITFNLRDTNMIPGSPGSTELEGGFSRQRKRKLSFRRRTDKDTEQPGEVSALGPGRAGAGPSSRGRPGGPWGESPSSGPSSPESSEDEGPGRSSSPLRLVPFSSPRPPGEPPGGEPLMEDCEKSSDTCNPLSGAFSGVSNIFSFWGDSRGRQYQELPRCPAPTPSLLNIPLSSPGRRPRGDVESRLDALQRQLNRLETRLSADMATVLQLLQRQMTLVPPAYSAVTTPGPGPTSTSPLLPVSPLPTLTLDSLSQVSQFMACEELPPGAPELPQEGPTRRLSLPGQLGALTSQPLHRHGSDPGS
Assay: Inhibition of hERG expressed in CHO cells at 40 uM by automated patch clamp analysis relative to control
Format: toxicity, cell-based
Settings: CHO cells that express hERG
property label: inhibition at 40 µM

query: I would be grateful if you could share the reported inhibition at 40 µM for "CCOc1ccc([C@H]2CC(=O)c3cc(OC)c(OC)c(OC)c32)cc1F" .
result: 42%

====

Assay: Potency index, ratio of test compound IC50 to 5-fluorouracil IC50 for cytotoxicity against human HUVEC cells assessed as inhibition of cell growth incubated 1.5 hrs by MTT assay
Type: toxicity, cell-based
Settings: read-out: Ratio IC50
property label: selectivity ratio at 1.5 h
One number for each entry.

query: I would be grateful if you could share the reported selectivity ratio at 1.5 h for "CCOc1ccc([C@H]2CC(=O)c3cc(OC)c(OC)c(OC)c32)cc1F" .
result: 1.6
